Target desc: T1, Monomeric human CD48-mmH (human)
T1 construct: also called soluble CD48 expressed with a myc-myc-hexa-histidine C-terminal tag [mmH]
T1 chain: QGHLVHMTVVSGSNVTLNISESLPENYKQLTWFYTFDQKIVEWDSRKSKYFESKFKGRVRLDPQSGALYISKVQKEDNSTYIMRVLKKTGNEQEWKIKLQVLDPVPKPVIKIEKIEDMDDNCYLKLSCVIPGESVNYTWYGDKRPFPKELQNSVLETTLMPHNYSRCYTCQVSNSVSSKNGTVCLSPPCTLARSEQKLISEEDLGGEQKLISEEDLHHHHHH
Procedure details: SPR (Biacore T100), 25 C, antibody captured by anti-Fc, monomeric CD48-mmH in solution
Reported endpoint: T½ (min)
Answers are plain numbers, in min.

Provide T½ values for the following items, in order.
1. H4H1770P (antibody, human IgG4, V domains shown, Human IgG4 Fc (prefix H4H)) VH: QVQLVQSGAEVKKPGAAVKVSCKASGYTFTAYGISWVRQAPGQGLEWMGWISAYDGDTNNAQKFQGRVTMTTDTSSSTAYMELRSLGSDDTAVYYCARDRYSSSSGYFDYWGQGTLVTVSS VL: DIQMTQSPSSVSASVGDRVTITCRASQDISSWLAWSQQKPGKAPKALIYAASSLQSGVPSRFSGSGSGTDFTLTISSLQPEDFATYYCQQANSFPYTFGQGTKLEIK
2. H2M1712N (antibody, mouse IgG2, V domains shown, Human variable domains, mouse IgG2 Fc (prefix H2M)) VH: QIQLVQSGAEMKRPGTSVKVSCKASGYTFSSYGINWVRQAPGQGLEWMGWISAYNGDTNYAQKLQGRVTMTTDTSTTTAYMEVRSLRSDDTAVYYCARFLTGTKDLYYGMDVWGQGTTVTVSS VL: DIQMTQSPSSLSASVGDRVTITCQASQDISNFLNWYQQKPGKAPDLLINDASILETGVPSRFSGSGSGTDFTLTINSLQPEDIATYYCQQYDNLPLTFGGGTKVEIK
3. H2M1763N (antibody, mouse IgG2, V domains shown, Human variable domains, mouse IgG2 Fc (prefix H2M)) VH: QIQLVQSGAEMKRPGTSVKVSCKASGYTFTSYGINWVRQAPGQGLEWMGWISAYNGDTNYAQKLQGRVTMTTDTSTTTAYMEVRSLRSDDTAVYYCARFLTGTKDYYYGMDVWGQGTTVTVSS VL: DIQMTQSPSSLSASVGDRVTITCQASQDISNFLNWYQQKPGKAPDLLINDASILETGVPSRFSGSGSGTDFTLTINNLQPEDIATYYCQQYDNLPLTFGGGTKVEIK

76
2
2

# credit: patent US20130230533A1
